Origin of measurements: ChEMBL document CHEMBL5108015

# EXPERIMENTAL_TARGET: Tryptophan 2,3-dioxygenase (Homo sapiens, UniProt P48775)
# Sequence (P48775 whole entry, looked up, the tested form may be a part): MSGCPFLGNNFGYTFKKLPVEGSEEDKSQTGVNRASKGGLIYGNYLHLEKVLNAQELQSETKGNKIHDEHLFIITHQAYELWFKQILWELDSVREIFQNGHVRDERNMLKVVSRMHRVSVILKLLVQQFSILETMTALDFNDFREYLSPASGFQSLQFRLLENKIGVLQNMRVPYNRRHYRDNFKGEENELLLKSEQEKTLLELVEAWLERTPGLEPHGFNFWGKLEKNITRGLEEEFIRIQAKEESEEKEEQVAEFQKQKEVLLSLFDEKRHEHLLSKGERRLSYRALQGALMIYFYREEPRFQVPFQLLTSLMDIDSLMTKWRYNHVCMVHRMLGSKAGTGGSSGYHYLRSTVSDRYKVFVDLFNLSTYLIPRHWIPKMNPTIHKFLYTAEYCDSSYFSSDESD
# MEASUREMENT_DESCRIPTION: Inhibition of N-terminal hexa-histidine tagged human TDO (19 to 388 residues) expressed in Escherichia coli Transetta (DE3) using L-tryptophan as substrate at 10 uM preincubated with enzyme for 10 mins followed by substrate addition and measured after 30 to 60 mins by microplate reader analysis relative to control
# STUDY_CONDITIONS: time 40-70 min
Returns one of Yes or No; Yes when inhibition is >= 80%.

Prompt: Item "O=[N+](O)c1c(Cl)cccc1CNc1cc(C(F)(F)F)cc2[nH]ncc12" with inhibition of 80% or above?
Response: Yes

Prompt: Item "O=[N+]([O-])c1ccc2[nH]c(CNc3cc(C(F)(F)F)cc4[nH]ncc34)cc2c1" with inhibition of 80% or above?
Response: No

Prompt: Item "NCCn1ncc2c(NCc3ccccc3[N+](=O)[O-])cc(C(F)(F)F)cc21" with inhibition of 80% or above?
Response: No

Prompt: Item "O=[N+]([O-])c1ccc(CNc2cc(Br)cc3[nH]ncc23)cc1" with inhibition of 80% or above?
Response: Yes

Prompt: Item "FC(F)(F)c1cc(NC[C@H]2CCCN2)c2cn[nH]c2c1" with inhibition of 80% or above?
Response: No

Prompt: Item "O=[N+]([O-])c1ccccc1CNc1cc(C(F)(F)F)cc2[nH]ncc12" with inhibition of 80% or above?
Response: Yes

Prompt: Item "Oc1ccc(CNc2cc(C(F)(F)F)cc3[nH]ncc23)c(Cl)c1" with inhibition of 80% or above?
Response: Yes

Prompt: Item "O=[N+]([O-])c1ccc(Cl)cc1CNc1cc(C(F)(F)F)cc2[nH]ncc12" with inhibition of 80% or above?
Response: Yes

Prompt: Item "O=[N+]([O-])c1ccccc1CNc1cc(Br)cc2[nH]ncc12" with inhibition of 80% or above?
Response: No

Prompt: Item "O=C1NCc2c(NCc3ccccc3[N+](=O)[O-])cccc21" with inhibition of 80% or above?
Response: No

----------
# EXPERIMENTAL_TARGET: Tryptophan 2,3-dioxygenase (Homo sapiens, UniProt P48775)
# MEASUREMENT_DESCRIPTION: Inhibition of N-terminal hexa-histidine tagged human TDO (19 to 388 residues) expressed in Escherichia coli Transetta (DE3) using L-tryptophan as substrate at 100 uM preincubated with enzyme for 10 mins followed by substrate addition and measured after 30 to 60 mins by microplate reader analysis relative to control
# STUDY_CONDITIONS: time 40-70 min
Returns one of 1 or 0; 1 when inhibition is >= 90%.

Prompt: Item "O=[N+]([O-])c1ccccc1CNc1cc(Br)cc2[nH]ncc12" with inhibition of 90% or above?
Response: 0

Prompt: Item "O=[N+]([O-])c1ccc(CNc2cc(Br)cc3[nH]ncc23)cc1" with inhibition of 90% or above?
Response: 1

Prompt: Item "COc1cc(CNc2cc(Br)cc3[nH]ncc23)c([N+](=O)[O-])cc1OC" with inhibition of 90% or above?
Response: 1

Prompt: Item "COC(=O)c1cc(NCc2ccccc2[N+](=O)[O-])c2cn[nH]c2c1" with inhibition of 90% or above?
Response: 0

Prompt: Item "O=[N+]([O-])c1ccccc1CNc1cc(Br)cc2cn[nH]c12" with inhibition of 90% or above?
Response: 0

Prompt: Item "O=[N+]([O-])c1cc(OCc2ccccc2)ccc1CNc1cc(C(F)(F)F)cc2[nH]ncc12" with inhibition of 90% or above?
Response: 0

Prompt: Item "CC(C)n1ncc2c(NCc3ccccc3[N+](=O)[O-])cc(C(F)(F)F)cc21" with inhibition of 90% or above?
Response: 0

Prompt: Item "CS(=O)(=O)c1ccc(CNc2cc(C(F)(F)F)cc3[nH]ncc23)c([N+](=O)O)c1" with inhibition of 90% or above?
Response: 1

Prompt: Item "O=[N+]([O-])c1ccc2[nH]c(CNc3cc(C(F)(F)F)cc4[nH]ncc34)cc2c1" with inhibition of 90% or above?
Response: 0

Prompt: Item OC1CCCC(Nc2cccc(CNc3cc(C(F)(F)F)cc4[nH]ncc34)c2)C1 (configuration not stated) with inhibition of 90% or above?
Response: 0

Prompt: Item "FC(F)(F)c1cccc(CNc2cc(C(F)(F)F)cc3[nH]ncc23)c1" with inhibition of 90% or above?
Response: 0

Prompt: Item "O=C(O)c1cccc(CNc2cc(C(F)(F)F)cc3[nH]ncc23)c1" with inhibition of 90% or above?
Response: 1

Prompt: Item "FC(F)(F)c1cc(NCc2cccc3sccc23)c2cn[nH]c2c1" with inhibition of 90% or above?
Response: 0

Prompt: Item "O=C(O)CNc1cccc(CNc2cc(C(F)(F)F)cc3[nH]ncc23)c1" with inhibition of 90% or above?
Response: 0

Prompt: Item "O=[N+]([O-])c1cccc(CNc2cc(C(F)(F)F)cc3[nH]ncc23)c1" with inhibition of 90% or above?
Response: 0

Prompt: Item "O=C1NC(=O)c2c(NCc3ccccc3[N+](=O)[O-])cccc21" with inhibition of 90% or above?
Response: 0

Prompt: Item "O=C1NCc2c(NCc3ccccc3[N+](=O)[O-])cccc21" with inhibition of 90% or above?
Response: 0

Prompt: Item "FC(F)(F)c1cc(NCc2cccc(Br)c2)c2cn[nH]c2c1" with inhibition of 90% or above?
Response: 0

Prompt: Item "O=[N+]([O-])c1ccc(O)cc1CNc1cc(Br)cc2[nH]ncc12" with inhibition of 90% or above?
Response: 1

Prompt: Item "O=[N+]([O-])c1ccccc1CNc1cccc2[nH]ncc12" with inhibition of 90% or above?
Response: 0
